Biological target: Glucocorticoid Receptor (GR) (Homo sapiens)
Construct: purchased Invitrogen P2816
Sequence (P04150 whole entry): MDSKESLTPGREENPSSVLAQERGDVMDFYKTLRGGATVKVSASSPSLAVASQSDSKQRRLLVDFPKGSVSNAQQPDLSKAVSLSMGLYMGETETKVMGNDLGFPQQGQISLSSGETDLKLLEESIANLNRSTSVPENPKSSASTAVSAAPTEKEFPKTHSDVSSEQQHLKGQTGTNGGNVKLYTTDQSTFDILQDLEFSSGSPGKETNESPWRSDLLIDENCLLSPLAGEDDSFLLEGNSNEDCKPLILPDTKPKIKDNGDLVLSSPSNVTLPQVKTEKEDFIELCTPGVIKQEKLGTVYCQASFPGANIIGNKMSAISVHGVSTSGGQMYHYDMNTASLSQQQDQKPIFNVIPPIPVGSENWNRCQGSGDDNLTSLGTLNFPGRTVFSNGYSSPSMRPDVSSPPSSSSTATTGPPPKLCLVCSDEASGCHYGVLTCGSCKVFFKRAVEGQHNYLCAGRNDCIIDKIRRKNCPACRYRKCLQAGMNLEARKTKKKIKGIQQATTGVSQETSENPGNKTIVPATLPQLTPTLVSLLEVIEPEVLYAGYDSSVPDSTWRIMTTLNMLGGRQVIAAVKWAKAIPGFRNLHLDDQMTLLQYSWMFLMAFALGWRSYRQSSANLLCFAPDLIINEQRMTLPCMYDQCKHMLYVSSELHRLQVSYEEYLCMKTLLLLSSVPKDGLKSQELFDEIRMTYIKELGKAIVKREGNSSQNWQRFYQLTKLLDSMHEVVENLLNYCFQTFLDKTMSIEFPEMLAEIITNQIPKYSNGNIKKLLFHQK
Assay: GR receptor competitor assay by fluorescence polarization (Invitrogen GR competitor assay kit, cat No. P2816)
Details: 20 μM test compound solution, 10 μL per well plus 5 μL 4×GS1 and 5 μL 4×GR solution; recombinant human GR; 2 to 4 hours at room temperature; a ratio of 100% or more is indicated by 100%; read-out: GR Binding ratio (%)
This listing pairs molecules with measured inhibition at 10 µM.
QUANTITY_MEASURED: inhibition at 10 µM (%)

* CCCS(=O)(=O)Oc1ccc(-c2ccc3c(c2COc2cc([N+](=O)[O-])ccc2OC)C(C)=CC(C)(C)N3)c(OC)c1 | 99
* COc1cc(OC(=O)c2cnccc2C)ccc1-c1ccc2c(c1COc1cc(F)ccc1C)C(C)=CC(C)(C)N2 | 100
* COc1cc(OC(=O)c2ccc(C)o2)ccc1-c1ccc2c(c1COc1cc(F)ccc1C)C(C)=CC(C)(C)N2 | 100
* COc1cc(OC(=O)c2ccco2)ccc1-c1ccc2c(c1COc1cc([N+](=O)[O-])ccc1C)C(C)=CC(C)(C)N2 | 93
* COc1cc(OS(=O)(=O)C(C)C)ccc1-c1ccc2c(c1COc1cc(F)ccc1C)C(C)=CC(C)(C)N2 | 89
* COc1ccc([N+](=O)[O-])cc1OCc1c(-c2ccc(OC(=O)c3ccccc3Cl)cc2OC)ccc2c1C(C)=CC(C)(C)N2 | 100
* COc1cc(OC(=O)c2cccnc2C)ccc1-c1ccc2c(c1COc1cc([N+](=O)[O-])ccc1C)C(C)=CC(C)(C)N2 | 100
* COc1cc(OC(=O)c2ccoc2)ccc1-c1ccc2c(c1COc1cc([N+](=O)[O-])ccc1C)C(C)=CC(C)(C)N2 | 100
* COc1ccc([N+](=O)[O-])cc1OCc1c(-c2ccc(OC(=O)N3CCOCC3)cc2OC)ccc2c1C(C)=CC(C)(C)N2 | 100
* COc1cc(OC(=O)c2occc2C)ccc1-c1ccc2c(c1COc1cc(F)ccc1C)C(C)=CC(C)(C)N2 | 100
* COc1cc(OC(=O)c2ccnc(Cl)c2)ccc1-c1ccc2c(c1COc1cc(F)ccc1C)C(C)=CC(C)(C)N2 | 95
* COc1ccccc1C(=O)Oc1ccc(-c2ccc3c(c2COc2cc(F)ccc2C)C(C)=CC(C)(C)N3)c(OC)c1 | 100
* COc1cc(OC(=O)C2CCCCC2)ccc1-c1ccc2c(c1COc1cc(F)ccc1C)C(C)=CC(C)(C)N2 | 100
* COc1ccc(OC(=O)c2ccccn2)cc1-c1ccc2c(c1COc1cc(F)ccc1C)C(C)=CC(C)(C)N2 | 100

---

This listing pairs compounds with measured inhibition at 10 µM.
Biological target: Glucocorticoid Receptor (GR) (Homo sapiens)
Construct: purchased Invitrogen P2816
Assay: GR receptor competitor assay by fluorescence polarization (Invitrogen GR competitor assay kit, cat No. P2816)
Conditions: 20 μM test compound solution, 10 μL per well plus 5 μL 4×GS1 and 5 μL 4×GR solution; recombinant human GR; 2 to 4 hours at room temperature; a ratio of 100% or more is indicated by 100%; read-out: GR Binding ratio (%)
QUANTITY_MEASURED: inhibition at 10 µM (%)

* COc1cc(OC(=O)CCc2ccccc2)ccc1-c1ccc2c(c1COc1cc(F)ccc1C)C(C)=CC(C)(C)N2 | 89
* COc1cc(OC(=O)c2ccccc2)ccc1-c1ccc2c(c1COc1cc(F)ccc1C)C(C)=CC(C)(C)N2 | 94
* CCCS(=O)(=O)Oc1ccc(-c2ccc3c(c2COc2cc(F)ccc2C)C(C)=CC(C)(C)N3)c(OC)c1 | 100
* COc1cc(OC(=O)c2cn(C(=O)OC(C)(C)C)cn2)ccc1-c1ccc2c(c1COc1cc(F)ccc1C)C(C)=CC(C)(C)N2 | 100
* COc1cc(OC(=O)c2cccnc2)ccc1-c1ccc2c(c1COc1cc(F)ccc1C)C(C)=CC(C)(C)N2 | 100
* CCCS(=O)(=O)Oc1ccc(-c2ccc3c(c2COc2cc([N+](=O)[O-])ccc2C)C(C)=CC(C)(C)N3)c(OC)c1 | 100
* COc1cc(OC(=O)c2ccccc2OC(C)=O)ccc1-c1ccc2c(c1COc1cc(F)ccc1C)C(C)=CC(C)(C)N2 | 97
